tested on: EGFR kinase (Homo sapiens)
Sequence (P00533 25-1210): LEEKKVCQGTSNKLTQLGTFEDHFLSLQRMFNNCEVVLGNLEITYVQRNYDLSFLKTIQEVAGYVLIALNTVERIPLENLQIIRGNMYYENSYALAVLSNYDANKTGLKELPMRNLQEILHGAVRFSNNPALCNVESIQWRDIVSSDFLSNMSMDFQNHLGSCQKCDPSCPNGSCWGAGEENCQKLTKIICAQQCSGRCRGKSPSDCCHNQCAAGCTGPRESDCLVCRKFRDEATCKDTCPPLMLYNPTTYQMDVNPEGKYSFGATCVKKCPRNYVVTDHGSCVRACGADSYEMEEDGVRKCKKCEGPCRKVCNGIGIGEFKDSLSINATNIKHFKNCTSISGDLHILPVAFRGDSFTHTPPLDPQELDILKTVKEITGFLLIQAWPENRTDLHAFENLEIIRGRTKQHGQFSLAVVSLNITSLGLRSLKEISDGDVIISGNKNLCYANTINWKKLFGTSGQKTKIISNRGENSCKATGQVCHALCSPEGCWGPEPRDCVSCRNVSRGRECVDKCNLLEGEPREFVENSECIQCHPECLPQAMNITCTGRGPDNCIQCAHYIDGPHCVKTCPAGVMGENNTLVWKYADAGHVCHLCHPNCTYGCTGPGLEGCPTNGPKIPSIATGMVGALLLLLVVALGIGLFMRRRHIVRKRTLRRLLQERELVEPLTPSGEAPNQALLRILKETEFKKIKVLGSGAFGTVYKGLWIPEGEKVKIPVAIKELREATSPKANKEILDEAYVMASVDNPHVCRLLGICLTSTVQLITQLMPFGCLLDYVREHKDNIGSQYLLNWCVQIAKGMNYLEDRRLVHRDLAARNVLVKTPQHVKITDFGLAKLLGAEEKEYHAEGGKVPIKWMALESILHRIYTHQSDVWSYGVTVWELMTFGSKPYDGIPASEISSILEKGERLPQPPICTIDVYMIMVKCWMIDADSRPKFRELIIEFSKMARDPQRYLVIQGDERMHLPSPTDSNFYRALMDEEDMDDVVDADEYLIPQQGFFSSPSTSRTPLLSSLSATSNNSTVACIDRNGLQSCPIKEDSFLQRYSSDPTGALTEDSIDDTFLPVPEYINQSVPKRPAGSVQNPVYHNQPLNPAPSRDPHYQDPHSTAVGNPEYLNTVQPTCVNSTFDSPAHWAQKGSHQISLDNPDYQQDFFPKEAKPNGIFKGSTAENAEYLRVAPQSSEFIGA
protocol details: Enzymatic experiment on EGFR (HTRF kinEASE-TK)
Format: biochemical
test settings: ATP 1.65 μM; read-out: Kinase IC50 (nM) in vitro EGFR
IC50: recorded values
Give your result in nM as a bare value.

A selection of reference data follows.
line notation: Cc1cc(Nc2ncnc3ccc(NC(=O)CC#N)cc23)ccc1Oc1cc2nncn2cn1
IC50 [nM]: 45.2
//
line notation: CC(=O)C(=O)Nc1ccc2ncnc(Nc3ccc(Oc4cc5nncn5cn4)c(C)c3)c2c1
IC50 [nM]: 28.7
//
line notation: Cc1cc(Nc2ncnc3ccc(-c4ccc(CN(C)CCS(C)(=O)=O)o4)cc23)ccc1Oc1cc2nncn2cn1
IC50 [nM]: 26
//
line notation: Cc1cc(Nc2ncnc3ccc(NC(=O)CCl)cc23)ccc1Oc1cc2nncn2cn1
IC50 [nM]: 2.2
//
line notation: CC1(C)COC(Nc2ccc3ncnc(Nc4ccc(Oc5cc6nncn6cn5)c(F)c4)c3c2)=N1
IC50 [nM]: 22.1

Ask | Which IC50 is listed for "Cc1cc(Nc2ncnc3ccc(-c4ccc(N)nn4)cc23)ccc1Oc1cc2nncn2cn1" ?
Reply | 28.4

Ask | Which IC50 is listed for "Cc1cc(Nc2ncnc3ccc(NC4=NC(C)(C)CO4)cc23)ccc1Oc1ncn2cnnc2c1O" ?
Reply | 11.4

Ask | Which IC50 is listed for "Cc1cc(Nc2ncnc3ccc(NC4=NC5(CO4)CC(F)(F)C5)cc23)ccc1Oc1cc2nncn2cn1" ?
Reply | 9.4

---

tested on: EGFR kinase (Homo sapiens)
protocol details: Enzymatic experiment on EGFR (HTRF kinEASE-TK)
Assay type: biochemical
test settings: ATP 1.65 μM; read-out: Kinase IC50 (nM) in vitro EGFR
Entries whose IC50 is below 60 nM take criterion met; entries at or above 60 nM take criterion not met.

compound: Cc1cc(Nc2ncnc3ccc(-c4cc(CN5CCS(=O)(=O)CC5)co4)cc23)ccc1Oc1cc2nncn2cn1
answer label: criterion met

compound: C=C(F)C(=O)Nc1cc2c(Nc3ccc(Oc4cc5nncn5cn4)c(C)c3)ncnc2cc1OCC
answer label: criterion met

compound: Cc1cc(NC(=O)Nc2ccc3ncnc(Nc4ccc(Oc5cc6nncn6cn5)c(C)c4)c3c2)n[nH]1
answer label: criterion not met

Ask | I'd appreciate it if you could check whether "Cc1cc(Nc2ncnc3ccc(NC4=NC5(CO4)CN(C)C5)cc23)ccc1Oc1cc2nncn2cn1" has IC50 smaller than 60 nM.
Reply | criterion met

Ask | I'd appreciate it if you could check whether "CC1(C)COC(Nc2ccc3ncnc(Nc4ccc(Oc5cc6nncn6cn5)c(CO)c4)c3c2)=N1" has IC50 smaller than 60 nM.
Reply | criterion not met

Ask | I'd appreciate it if you could check whether "Cc1cc(Nc2ncnc3ccc(-c4ccc(CN5CCS(=O)(=O)CC5)o4)cc23)ccc1Oc1cc2nncn2cn1" has IC50 smaller than 60 nM.
Reply | criterion met

Ask | I'd appreciate it if you could check whether "C=CC(=O)N1CC=C(c2ccc3ncnc(Nc4ccc(Oc5cc6nncn6cn5)c(C)c4)c3c2)CC1" has IC50 smaller than 60 nM.
Reply | criterion not met

Ask | I'd appreciate it if you could check whether "Cc1cc(Nc2ncnc3ccc(-c4cccc(NC(=O)/C=C/CN(C)C)c4)cc23)ccc1Oc1cc2nncn2cn1" has IC50 smaller than 60 nM.
Reply | criterion not met

---

tested on: CYP3A4 (Homo sapiens, UniProt P08684)
Construct: from tissue; host or cells: human liver microsomes
Sequence (P08684 whole entry): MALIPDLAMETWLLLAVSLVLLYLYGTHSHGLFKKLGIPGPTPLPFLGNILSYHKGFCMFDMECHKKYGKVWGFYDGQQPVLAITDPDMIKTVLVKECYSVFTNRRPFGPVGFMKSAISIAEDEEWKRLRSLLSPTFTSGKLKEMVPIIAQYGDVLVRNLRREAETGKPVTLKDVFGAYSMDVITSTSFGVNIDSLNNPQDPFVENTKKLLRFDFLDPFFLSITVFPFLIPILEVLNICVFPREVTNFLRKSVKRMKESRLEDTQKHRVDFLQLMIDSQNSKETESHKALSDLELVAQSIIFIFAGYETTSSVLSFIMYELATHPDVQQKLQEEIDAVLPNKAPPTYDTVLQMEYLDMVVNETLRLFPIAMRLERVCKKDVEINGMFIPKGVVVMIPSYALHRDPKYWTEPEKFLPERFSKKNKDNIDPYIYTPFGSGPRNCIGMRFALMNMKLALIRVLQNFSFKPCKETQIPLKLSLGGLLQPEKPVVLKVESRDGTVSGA
protocol details: Direct inhibition of CYP3A4, human liver microsome
Format: in vitro ADME
test settings: probe testosterone, read-out: IC50 3A4 (testosterone)
IC50: recorded values
The reply must contain the numeric value and, after it, the unit.

molecule: Cc1cc(Nc2ncnc3ccc(NC4=NC(C)(C)CO4)cc23)ccc1Oc1ccn2ncnc2c1 [ARRY-380, reference compound]
IC50: 11 µM

Here's the next entry for you.
Ask | Which IC50 is listed for Cc1cc(Nc2ncnc3ccc(NC4=NC(C)(C)CO4)cc23)ccc1Oc1cc2nncn2cn1 [Embodiment 4] ?
Reply | 21 µM

---

tested on: ErbB2 kinase (Homo sapiens, UniProt P04626)
Sequence (P04626 23-1255): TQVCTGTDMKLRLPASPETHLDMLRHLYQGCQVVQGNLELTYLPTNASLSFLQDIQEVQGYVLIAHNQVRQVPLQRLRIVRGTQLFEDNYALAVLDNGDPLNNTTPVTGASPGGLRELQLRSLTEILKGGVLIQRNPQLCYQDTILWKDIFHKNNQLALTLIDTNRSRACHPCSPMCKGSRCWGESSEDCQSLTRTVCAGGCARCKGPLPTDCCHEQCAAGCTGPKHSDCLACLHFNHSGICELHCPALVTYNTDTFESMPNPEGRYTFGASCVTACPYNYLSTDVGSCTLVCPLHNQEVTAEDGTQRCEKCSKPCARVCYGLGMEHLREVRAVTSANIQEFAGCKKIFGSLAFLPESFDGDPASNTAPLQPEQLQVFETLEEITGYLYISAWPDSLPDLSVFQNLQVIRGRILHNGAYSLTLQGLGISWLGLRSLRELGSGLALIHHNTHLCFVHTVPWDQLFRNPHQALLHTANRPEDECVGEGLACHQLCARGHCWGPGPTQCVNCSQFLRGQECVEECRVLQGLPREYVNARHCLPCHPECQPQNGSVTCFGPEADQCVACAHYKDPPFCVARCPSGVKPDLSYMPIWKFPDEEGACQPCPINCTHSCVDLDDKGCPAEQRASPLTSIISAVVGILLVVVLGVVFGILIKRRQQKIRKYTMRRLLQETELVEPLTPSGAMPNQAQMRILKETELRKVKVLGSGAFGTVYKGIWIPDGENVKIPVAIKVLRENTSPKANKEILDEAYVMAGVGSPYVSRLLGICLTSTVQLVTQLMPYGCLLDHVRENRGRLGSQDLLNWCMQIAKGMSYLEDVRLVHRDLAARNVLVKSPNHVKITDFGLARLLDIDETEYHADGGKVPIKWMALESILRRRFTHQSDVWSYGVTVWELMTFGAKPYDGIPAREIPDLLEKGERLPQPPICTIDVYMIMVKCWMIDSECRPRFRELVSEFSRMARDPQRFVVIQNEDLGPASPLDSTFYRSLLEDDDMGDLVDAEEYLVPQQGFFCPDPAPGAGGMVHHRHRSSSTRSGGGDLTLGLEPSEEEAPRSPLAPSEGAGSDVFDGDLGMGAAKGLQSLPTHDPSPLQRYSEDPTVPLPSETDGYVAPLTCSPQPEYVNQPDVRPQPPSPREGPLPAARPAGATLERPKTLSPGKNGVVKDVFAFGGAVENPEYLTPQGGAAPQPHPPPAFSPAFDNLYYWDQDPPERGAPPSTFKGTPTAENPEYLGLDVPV
protocol details: Enzymatic experiment on ErbB2 (HTRF kinEASE-TK)
Type: biochemical
test settings: ATP 4 μM; read-out: Kinase IC50 (nM) in vitro ErbB2
IC50: recorded values
Give your result in nM as a bare value.

A selection of reference data follows.
molecule: Cc1cc(Nc2ncnc3ccc(NC(=S)NC(C)(C)CNC(=O)OC(C)(C)C)cc23)ccc1Oc1cc2nncn2cn1 [Embodiment 11]
numeric result: 58.1
//
molecule: C=CC(=O)N1CCC(Oc2cc3c(Nc4ccc(Oc5cc6nncn6cn5)c(Cl)c4)ncnc3cc2OC)CC1 [Embodiment 92]
numeric result: 0.44
//
molecule: Cc1cc(Nc2ncnc3ccc(NC4=NCC(C)(C)O4)cc23)ccc1Oc1cc2nncn2cn1 [Embodiment 90]
numeric result: 11.1

Here's the next entry for you.
Ask | Which IC50 is listed for CCOC(=O)Nc1cccc(-c2ccc3ncnc(Nc4ccc(Oc5cc6nncn6cn5)c(C)c4)c3c2)c1 [Embodiment 38] ?
Reply | 5

---

IC50: recorded values
tested on: CYP1A2 (Homo sapiens)
Sequence (P05177 1-516): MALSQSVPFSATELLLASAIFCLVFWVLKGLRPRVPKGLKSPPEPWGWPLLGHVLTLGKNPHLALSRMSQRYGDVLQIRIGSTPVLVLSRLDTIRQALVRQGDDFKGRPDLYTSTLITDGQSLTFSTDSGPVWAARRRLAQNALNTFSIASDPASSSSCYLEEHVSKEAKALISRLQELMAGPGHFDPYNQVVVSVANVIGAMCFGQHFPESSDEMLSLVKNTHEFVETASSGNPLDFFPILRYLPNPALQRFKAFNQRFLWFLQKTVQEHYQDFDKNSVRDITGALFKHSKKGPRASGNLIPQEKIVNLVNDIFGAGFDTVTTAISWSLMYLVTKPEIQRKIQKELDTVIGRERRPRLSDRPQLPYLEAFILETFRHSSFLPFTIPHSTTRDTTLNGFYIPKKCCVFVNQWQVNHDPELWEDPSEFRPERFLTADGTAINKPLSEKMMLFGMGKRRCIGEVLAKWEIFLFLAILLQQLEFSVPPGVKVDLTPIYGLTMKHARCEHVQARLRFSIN
Give your result in µM as a bare value.

compound: Cc1cc(Nc2ncnc3ccc(NC4=NC(C)(C)CO4)cc23)ccc1Oc1ccn2ncnc2c1 [ARRY-380, reference compound]
metric: IC50
unit annotation: µM
numeric result: 94

Ask | Which IC50 is listed for "Cc1cc(Nc2ncnc3ccc(NC4=NC(C)(C)CO4)cc23)ccc1Oc1cc2nncn2cn1" ?
Reply | 34

---

tested on: ErbB2 kinase (Homo sapiens, UniProt P04626)
protocol details: Enzymatic experiment on ErbB2 (HTRF kinEASE-TK)
Assay type: biochemical
metric: IC50
The reply must contain the numeric value and, after it, the unit.

Ask | Which IC50 is listed for Cc1cc(Nc2ncnc3ccc(NC(=O)Oc4ccccc4)cc23)ccc1Oc1cc2nncn2cn1 [Embodiment 66] ?
Reply | 12.9 nM

---

tested on: ErbB2 kinase (Homo sapiens)
protocol details: Enzymatic experiment on ErbB2 (HTRF kinEASE-TK)
Assay type: biochemical
test settings: ATP 4 μM; read-out: Kinase IC50 (nM) in vitro ErbB2
Protocol: Enzymatic Experiment on EGFR/ErbB2 Firstly, preparing 1× reaction buffer required for the kinase, 5× Enzymatic buffer (HEPES 20 mM pH7.0, NaN3 0.1%, BSA 0.05%, sodium orthovanadate 0.5 mM) in the HTRF kinEASE-TK kit was diluted to 1 time with deionized water, 50 nM Supplement Enzymatic buffer (SEB reagent), 1 mM MnCl2, 5 mM MgCl2 and 1 mM DTT were added. […]
log10 IC50: recorded values
Quick note: numbers are log10 of IC50, with nM as the unit.

line notation: C=CC(=O)Nc1cc(-c2ccc3ncnc(Nc4ccc(Oc5cc6nncn6cn5)c(C)c4)c3c2)ccn1
tested on: ErbB2 kinase (Homo sapiens)
log10 IC50: 0.00

line notation: C=CC(=O)N1CCC(Oc2cc3c(Nc4ccc(Oc5cc6nncn6cn5)c(C)c4)ncnc3cc2OC)CC1
tested on: ErbB2 kinase (Homo sapiens)
log10 IC50: 0.63

line notation: Cc1cc(Nc2ncnc3ccc(NC4=NCC5(CCN(C(=O)OC(C)(C)C)CC5)O4)cc23)ccc1Oc1cc2nncn2cn1
tested on: ErbB2 kinase (Homo sapiens)
log10 IC50: 1.73

line notation: Cc1cc(Nc2ncnc3ccc(NC4=NCC5(CCN(C)CC5)O4)cc23)ccc1Oc1cc2nncn2cn1
tested on: ErbB2 kinase (Homo sapiens)
log10 IC50: 1.00

line notation: Cc1cc(Nc2ncnc3ccc(NC(=O)/C=C/[C@H]4CCCN4C)cc23)ccc1Oc1cc2nncn2cn1
tested on: ErbB2 kinase (Homo sapiens)
log10 IC50: 0.48

line notation: Cc1cc(Nc2ncnc3ccc(/C=C/C(=O)NOCCO)cc23)ccc1Oc1cc2nncn2cn1
tested on: ErbB2 kinase (Homo sapiens)
log10 IC50: 1.34

Ask | Which log10 IC50 is listed for "Cc1cc(Nc2ncnc3ccc(-c4ccc(CNCCNS(C)(=O)=O)o4)cc23)ccc1Oc1cc2nncn2cn1" ?
Reply | 0.18
